Catalogue of molecules with associated LAP4-GFP fluorescence (kMESF)
assay: LAP4-GFP modulation potency in yeast, dose response, cell-based, MLPCN hits, flow cytometry (AID 2745);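 further: yeast exposed to compound for three hours at 30 degrees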; conditions: S. cerevisiae LAP4-GFP reporter, flow cytometry fluorescence; at 33 µM (top of the series)
The source made the active and inactive calls. How the calls were made is not given here.

CN(C)/C=C/C(=O)c1ccc(-c2ccc(Cl)cc2Cl)o1 ... 4.39 kMESF (inactive)

Lab note: measured LAP4-GFP fluorescence (kMESF) of "Cc1[nH]c2ccccc2c1C(=O)COC(=O)c1ccc([N+](=O)[O-])s1" was 6.02 kMESF (inactive)

Lab note: measured LAP4-GFP fluorescence (kMESF) of "N=C1/C(=C\c2coc3ccccc3c2=O)C(=O)N=C2SC(c3ccncc3)=NN12" was -3.74 kMESF (inactive)

Lab note: measured LAP4-GFP fluorescence (kMESF) of "CCN(CC)c1ccc(/C=C2\C(=O)c3ccc(C(=O)O)cc3C2=O)cc1" was 392 kMESF (inactive)

Lab note: measured LAP4-GFP fluorescence (kMESF) of "N#Cc1ccc(N=c2ssnc2Cl)cc1" was 9.41 kMESF (inactive)

Lab note: measured LAP4-GFP fluorescence (kMESF) of "C=CCOc1ccc(C(=O)/C=C2/C(=O)Nc3ccccc32)cc1" was 7.99 kMESF (inactive)

Lab note: measured LAP4-GFP fluorescence (kMESF) of "CCCc1ccc(OCC(=O)NNC(=S)NC(=O)c2ccco2)cc1" was 11.2 kMESF (inactive)

Lab note: measured LAP4-GFP fluorescence (kMESF) of "CCc1nc2ccccc2c(=O)n1NC(=O)c1c(O)c2cccc3c2n(c1=O)CCC3" was 3.04 kMESF (inactive)

Lab note: measured LAP4-GFP fluorescence (kMESF) of "CC(C)[C@@]1(c2ccccc2)ON(c2ccccc2C(F)(F)F)C1=O" was 3.43 kMESF (inactive)

Lab note: measured LAP4-GFP fluorescence (kMESF) of "O=C(Nc1ccc(N2CCOCC2)cc1)C1CCN(S(=O)(=O)c2ccc3c(c2)OCCO3)CC1" was 3.78 kMESF (inactive)

Data origin: PubChem BioAssay AID2745
